Molecular target: T1, human 4Ig-B7H3 (B7H3-4Ig-His) (human, UniProt Q5ZPR3 29-466)
T1 construct: Recombinant His-tagged protein immobilised on a CM5 chip; also called 41g-B7H3; human 4Ig-B7-H3 (dominant isoform); not shown: His tag
T1 sequence: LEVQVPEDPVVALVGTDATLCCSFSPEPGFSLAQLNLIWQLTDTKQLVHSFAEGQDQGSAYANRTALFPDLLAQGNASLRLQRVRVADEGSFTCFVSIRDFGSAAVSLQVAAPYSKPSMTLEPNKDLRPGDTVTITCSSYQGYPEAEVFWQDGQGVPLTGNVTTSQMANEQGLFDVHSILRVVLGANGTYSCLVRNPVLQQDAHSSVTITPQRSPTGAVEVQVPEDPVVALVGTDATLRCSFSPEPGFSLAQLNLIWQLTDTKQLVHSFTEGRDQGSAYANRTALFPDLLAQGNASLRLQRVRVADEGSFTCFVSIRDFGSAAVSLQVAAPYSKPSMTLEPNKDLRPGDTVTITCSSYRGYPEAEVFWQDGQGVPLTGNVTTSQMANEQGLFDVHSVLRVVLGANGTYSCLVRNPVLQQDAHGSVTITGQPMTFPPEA
Assay: SPR, Biacore T200, 4Ig-B7H3-His on CM5 chip, 1:1 fit
Quick list: t ½ per entry.
Report the value in min with no unit label.

Example entries and their recorded answers appear below.
Asked: Recorded t ½ of 8H9 antibody conjugated with p-SCN-Bn-DOTA, CAR 0.8 (antibody, mouse IgG1, kappa, V domains shown, p-SCN-Bn-DOTA conjugated, CAR 0.8 per antibody; sites not stated, Chelator conjugate, not metal-labelled) VH: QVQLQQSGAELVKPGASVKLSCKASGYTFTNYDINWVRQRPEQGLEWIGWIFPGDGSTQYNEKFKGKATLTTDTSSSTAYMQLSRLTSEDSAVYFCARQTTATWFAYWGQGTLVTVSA VL: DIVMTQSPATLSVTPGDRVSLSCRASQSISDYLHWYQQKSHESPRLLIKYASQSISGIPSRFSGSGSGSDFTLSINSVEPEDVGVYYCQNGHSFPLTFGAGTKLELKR , please.
Given back: 100

Asked: Next: 8H9 antibody conjugated with p-SCN-Bn-CHX-A″-DTPA, CAR 6.1 (antibody, mouse IgG1, kappa, V domains shown, p-SCN-Bn-CHX-A″-DTPA conjugated, CAR 6.1 per antibody; sites not stated, Chelator conjugate, not metal-labelled) VH: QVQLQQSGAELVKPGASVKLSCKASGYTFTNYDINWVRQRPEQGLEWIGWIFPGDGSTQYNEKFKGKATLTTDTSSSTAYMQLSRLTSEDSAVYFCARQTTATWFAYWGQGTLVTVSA VL: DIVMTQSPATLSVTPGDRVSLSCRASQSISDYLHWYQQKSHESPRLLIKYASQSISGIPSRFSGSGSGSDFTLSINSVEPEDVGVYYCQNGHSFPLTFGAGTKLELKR
Given back: 12.9

Now take the following binder into account.
Asked: Recorded t ½ of 8H9 antibody conjugated with p-SCN-Bn-CHX-A″-DTPA, CAR 3.6 (antibody, mouse IgG1, kappa, V domains shown, p-SCN-Bn-CHX-A″-DTPA conjugated, CAR 3.6 per antibody; sites not stated, Chelator conjugate, not metal-labelled) VH: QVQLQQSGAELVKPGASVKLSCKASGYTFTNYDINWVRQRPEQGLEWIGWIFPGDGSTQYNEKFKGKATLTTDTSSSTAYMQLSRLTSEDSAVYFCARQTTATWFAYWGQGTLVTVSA VL: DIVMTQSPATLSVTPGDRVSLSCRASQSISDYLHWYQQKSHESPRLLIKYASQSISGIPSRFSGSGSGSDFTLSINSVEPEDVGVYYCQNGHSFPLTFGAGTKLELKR , please.
Given back: 30.5
